- TARGET_SYSTEM: T1, di muNKG2D ECD Fc avi (murine, biotinylated at the avi-tag)
- T1 construct: Dimeric fusion of murine NKG2D ECD to the C-terminus of an avi-tagged human IgG1 Fc; also called recombinant murine NKG2D
- T1 sequence (chain, as listed by the source limits assumed): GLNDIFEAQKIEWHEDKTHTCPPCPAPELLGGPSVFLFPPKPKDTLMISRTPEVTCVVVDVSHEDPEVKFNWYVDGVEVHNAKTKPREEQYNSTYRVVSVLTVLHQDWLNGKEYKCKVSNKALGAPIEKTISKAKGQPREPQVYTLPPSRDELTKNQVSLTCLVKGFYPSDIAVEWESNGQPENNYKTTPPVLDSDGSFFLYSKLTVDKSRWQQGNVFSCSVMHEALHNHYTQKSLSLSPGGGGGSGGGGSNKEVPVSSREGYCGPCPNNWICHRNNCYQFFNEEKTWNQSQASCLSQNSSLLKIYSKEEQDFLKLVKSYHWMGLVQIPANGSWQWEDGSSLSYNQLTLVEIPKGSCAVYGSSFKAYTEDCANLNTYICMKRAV
- TEST_SUMMARY: ELISA; biotinylated antigen on streptavidin plate
MEASUREMENT_KIND: OD max

The reported value for anti-NKG2D antibody clone 320 (antibody, V domains shown, From transgenic rabbits; also called 320 IgG) VH: EVQLLESGGGLVQPGGSLRLSCATSGFTFSDYAMSWVRQAPGKGLEWVSYNSFSVGSTDYADSVKGRFTISRDNSKNTLYLQMNSLRAEDTAVYYCSKHSGNYYTGPFHYWGQGTLVTVSS VL: DIQLTQSPSFLSASVGDRVTITCRASQGISSYLAWYQQKPGKAPKLLIYAASSLESGVPSRFSGSGSGTDFTLTISSLQPEDFATYYCQQSYSTPITFGQGTRLEIK in terms of OD max is 0.1 OD
